Let's look at some binders and their measured Trimeric HA Binding RLU.
- system: recombinant soluble homotrimeric HA of A/duck/Yangzhou/02/2005 (H8N4) (Influenza A virus A/duck/Yangzhou/02/2005 (H8N4))
- assay name: HA microarray, BCC supernatant
- experimental parameters: remark: other sources report otherwise
measured attribute: Trimeric HA Binding RLU

binder="TCN-537 (3194_D21) (antibody, V domains shown) VH: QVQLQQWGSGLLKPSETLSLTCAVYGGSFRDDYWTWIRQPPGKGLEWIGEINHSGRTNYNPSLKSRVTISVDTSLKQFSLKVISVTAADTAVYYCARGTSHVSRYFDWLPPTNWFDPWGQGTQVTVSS VL: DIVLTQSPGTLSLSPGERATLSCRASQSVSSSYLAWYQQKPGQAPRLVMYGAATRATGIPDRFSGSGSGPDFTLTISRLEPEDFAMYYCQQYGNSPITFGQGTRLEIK" value_reported="7830 RLU"
binder="TCN-557 (5081_A04) (antibody, V domains shown) VH: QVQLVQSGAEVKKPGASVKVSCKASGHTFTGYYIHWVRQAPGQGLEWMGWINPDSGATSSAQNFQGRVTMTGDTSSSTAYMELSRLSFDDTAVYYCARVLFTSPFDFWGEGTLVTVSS VL: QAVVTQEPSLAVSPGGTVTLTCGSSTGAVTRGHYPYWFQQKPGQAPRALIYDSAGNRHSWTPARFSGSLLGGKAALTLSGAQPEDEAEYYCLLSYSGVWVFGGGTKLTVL" value_reported="50100 RLU"
binder="TCN-535 (5246_P19) (antibody, V domains shown) VH: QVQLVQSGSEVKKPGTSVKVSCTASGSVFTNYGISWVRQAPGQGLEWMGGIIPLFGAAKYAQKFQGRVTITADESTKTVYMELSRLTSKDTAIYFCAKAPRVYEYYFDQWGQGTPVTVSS VL: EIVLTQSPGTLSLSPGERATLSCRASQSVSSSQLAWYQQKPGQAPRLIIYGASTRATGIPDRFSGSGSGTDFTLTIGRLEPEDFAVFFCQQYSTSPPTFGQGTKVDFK" value_reported="36600 RLU"
